Quick list: IC50 per entry.
tested_on: PI3Kβ (Homo sapiens)
Sequence (P42338 whole entry): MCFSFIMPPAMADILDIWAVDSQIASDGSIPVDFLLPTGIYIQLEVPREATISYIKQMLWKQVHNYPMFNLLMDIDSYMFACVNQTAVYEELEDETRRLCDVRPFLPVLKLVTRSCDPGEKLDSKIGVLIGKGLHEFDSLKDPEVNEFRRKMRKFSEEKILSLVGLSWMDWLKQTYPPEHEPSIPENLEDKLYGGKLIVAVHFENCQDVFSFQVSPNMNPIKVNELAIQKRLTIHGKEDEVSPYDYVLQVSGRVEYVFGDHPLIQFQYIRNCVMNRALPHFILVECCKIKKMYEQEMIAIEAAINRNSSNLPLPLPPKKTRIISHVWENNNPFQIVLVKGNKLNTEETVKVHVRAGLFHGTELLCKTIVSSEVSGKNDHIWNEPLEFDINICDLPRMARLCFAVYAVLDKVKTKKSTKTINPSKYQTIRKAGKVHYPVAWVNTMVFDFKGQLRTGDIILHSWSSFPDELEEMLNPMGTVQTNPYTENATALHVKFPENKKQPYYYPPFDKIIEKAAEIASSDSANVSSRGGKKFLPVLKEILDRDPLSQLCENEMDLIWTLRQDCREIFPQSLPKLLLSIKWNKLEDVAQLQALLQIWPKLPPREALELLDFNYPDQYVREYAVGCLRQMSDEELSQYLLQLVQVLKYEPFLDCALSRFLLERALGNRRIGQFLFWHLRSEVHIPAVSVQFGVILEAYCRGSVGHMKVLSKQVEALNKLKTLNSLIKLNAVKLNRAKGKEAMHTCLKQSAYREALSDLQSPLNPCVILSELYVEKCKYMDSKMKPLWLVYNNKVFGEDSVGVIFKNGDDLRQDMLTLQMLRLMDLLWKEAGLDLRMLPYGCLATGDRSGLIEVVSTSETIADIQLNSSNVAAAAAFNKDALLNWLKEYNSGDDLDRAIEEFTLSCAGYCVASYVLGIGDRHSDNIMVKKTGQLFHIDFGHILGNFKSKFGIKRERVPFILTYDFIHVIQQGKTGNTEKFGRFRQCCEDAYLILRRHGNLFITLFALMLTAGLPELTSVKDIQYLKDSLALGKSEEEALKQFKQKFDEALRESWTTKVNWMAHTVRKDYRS
Sequence (P27986 whole entry partner): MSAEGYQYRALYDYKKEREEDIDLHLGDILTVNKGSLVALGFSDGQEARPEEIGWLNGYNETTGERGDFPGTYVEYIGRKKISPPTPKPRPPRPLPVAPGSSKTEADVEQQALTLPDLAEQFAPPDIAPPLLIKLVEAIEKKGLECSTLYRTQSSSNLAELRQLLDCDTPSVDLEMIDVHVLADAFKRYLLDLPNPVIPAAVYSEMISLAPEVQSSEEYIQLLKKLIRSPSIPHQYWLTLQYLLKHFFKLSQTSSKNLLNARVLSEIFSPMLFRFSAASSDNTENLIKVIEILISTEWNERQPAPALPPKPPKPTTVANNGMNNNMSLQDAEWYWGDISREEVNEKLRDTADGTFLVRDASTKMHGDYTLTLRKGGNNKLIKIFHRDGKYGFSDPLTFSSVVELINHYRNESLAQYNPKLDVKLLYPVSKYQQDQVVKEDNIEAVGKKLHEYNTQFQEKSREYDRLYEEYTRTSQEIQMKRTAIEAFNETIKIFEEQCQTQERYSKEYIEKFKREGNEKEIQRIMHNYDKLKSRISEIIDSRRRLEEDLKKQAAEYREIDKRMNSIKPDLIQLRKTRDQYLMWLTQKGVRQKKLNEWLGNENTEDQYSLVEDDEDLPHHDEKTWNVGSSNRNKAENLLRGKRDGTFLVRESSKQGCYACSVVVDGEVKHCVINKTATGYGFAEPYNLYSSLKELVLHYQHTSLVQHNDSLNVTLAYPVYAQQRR
Give the value, in units of µM, as a plain number.

{"compound": "COc1ncc(-c2ccc3ncn(CC(C)C(=O)O)c(=O)c3c2)cc1NS(=O)(=O)c1ccc(F)cc1Cl (single isomer, unassigned) [R003, reference compound]", "IC50 / µM": 0.426}
{"compound": "CNC(=O)C(C)Cn1cnc2ccc(-c3cnc(OC)c(NS(=O)(=O)c4ccc(F)cc4C)c3)cc2c1=O (single isomer, unassigned) [WX181]", "IC50 / µM": 0.72}

Could you now look at the following compound, please?
INPUT: Hello, please tell me recorded IC50 for this one: CNC(=O)C(C)Cn1cnc2ccc(-c3cnc(OC)c(NS(=O)(=O)c4ccc(F)c(Cl)c4)c3)cc2c1=O (single isomer, unassigned) [WX166]
OUTPUT: 0.222

* * *

tested_on: PI3Kδ (Homo sapiens, UniProt O00329)
Sequence (O00329 whole entry): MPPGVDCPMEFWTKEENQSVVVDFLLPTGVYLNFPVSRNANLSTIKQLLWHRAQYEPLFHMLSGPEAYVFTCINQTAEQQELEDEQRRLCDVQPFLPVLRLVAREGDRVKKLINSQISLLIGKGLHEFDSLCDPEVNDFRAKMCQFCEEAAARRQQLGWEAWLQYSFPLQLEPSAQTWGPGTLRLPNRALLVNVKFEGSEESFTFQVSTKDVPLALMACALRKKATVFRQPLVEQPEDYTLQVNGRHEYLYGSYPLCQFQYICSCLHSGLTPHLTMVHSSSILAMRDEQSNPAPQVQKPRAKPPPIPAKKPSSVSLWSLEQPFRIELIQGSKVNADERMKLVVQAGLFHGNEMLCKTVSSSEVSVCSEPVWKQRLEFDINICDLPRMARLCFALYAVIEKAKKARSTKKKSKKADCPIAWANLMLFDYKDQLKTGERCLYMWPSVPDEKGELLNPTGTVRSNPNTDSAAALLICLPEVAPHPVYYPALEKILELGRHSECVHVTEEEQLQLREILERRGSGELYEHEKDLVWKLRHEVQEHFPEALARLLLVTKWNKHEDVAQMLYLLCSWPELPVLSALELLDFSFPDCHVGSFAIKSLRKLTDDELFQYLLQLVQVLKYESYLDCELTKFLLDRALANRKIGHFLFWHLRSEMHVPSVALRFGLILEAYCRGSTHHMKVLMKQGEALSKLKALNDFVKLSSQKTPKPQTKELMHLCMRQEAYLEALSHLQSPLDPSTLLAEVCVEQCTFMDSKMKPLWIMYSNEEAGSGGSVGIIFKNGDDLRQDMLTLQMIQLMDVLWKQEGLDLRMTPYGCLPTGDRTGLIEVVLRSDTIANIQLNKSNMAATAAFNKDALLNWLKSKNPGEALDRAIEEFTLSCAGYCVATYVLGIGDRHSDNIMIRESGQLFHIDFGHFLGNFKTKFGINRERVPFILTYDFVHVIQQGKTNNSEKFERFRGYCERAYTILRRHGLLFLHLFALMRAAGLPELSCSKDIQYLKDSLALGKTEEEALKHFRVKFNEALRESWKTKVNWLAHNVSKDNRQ
Sequence (P27986 whole entry partner): as the sequence (P27986 whole entry partner) above
procedure_details: In vitro test of enzyme activity (ADP-Glo lipokinase), PI3K delta
run_conditions: 40 μM ATP, 50 μM PIP2:3PS, 120 min
pIC50: −log10 of the molar value.
Label scheme for pIC50: lower than 8 is f, 8 and above is t.

{"compound": "CNC(=O)CCCn1cnc2ccc(-c3cnc(OC)c(NS(=O)(=O)c4ccc(F)cc4Cl)c3)cc2c1=O", "assigned_label": "t"}
{"compound": "CNC(=O)C(C)Cn1cnc2ccc(-c3cnc(OC)c(NS(=O)(=O)c4ccc(C)cc4C)c3)cc2c1=O (single isomer, unassigned)", "assigned_label": "f"}
{"compound": "COc1ncc(-c2ccc3ncn(CC(C)C(=O)NCCF)c(=O)c3c2)cc1NS(=O)(=O)c1ccc(F)cc1Cl (single isomer, unassigned) [WX067]", "assigned_label": "f"}
{"compound": "CNC(=O)C(C)Cn1cnc2c(F)cc(-c3cnc(OC)c(NS(=O)(=O)c4ccc(F)cc4Cl)c3)cc2c1=O (single isomer, unassigned)", "assigned_label": "f"}
{"compound": "Cc1ncc(-c2ccc3ncn(CCN(C)C)c(=O)c3c2)cc1NS(=O)(=O)c1ccc(F)cc1Cl [R010, reference compound]", "assigned_label": "f"}

INPUT: Given CNC(=O)C(C)Cn1cnc2ccc(-c3cnc(OC)c(NS(=O)(=O)c4ccc(F)cc4C)c3)cc2c1=O (single isomer, unassigned) , state whether its pIC50 is at least 8.
OUTPUT: f

INPUT: Threshold query (pIC50 >= 8) on Cc1nc(C)c(S(=O)(=O)Nc2cc(-c3ccc4ncn(CCCC(=O)NC(C)C)c(=O)c4c3)cnc2C)s1
OUTPUT: t

INPUT: Does pIC50 meet or surpass 8 for CNC(=O)C(C)Cn1cnc2ccc(-c3cnc(OC)c(NS(=O)(=O)c4cc(C(F)(F)F)cc(C(F)(F)F)c4)c3)cc2c1=O (single isomer, unassigned) ?
OUTPUT: f

* * *

The compounds listed here are annotated with their pIC50.
tested_on: PI3Kδ (Homo sapiens)
procedure_details: In vitro test of enzyme activity (ADP-Glo lipokinase), PI3K delta
run_conditions: 40 μM ATP, 50 μM PIP2:3PS, 120 min
Kindly note that pIC50 refers to -log10 of the concentration in mol/L and answer with the value alone.

{"compound": "Cc1ncc(-c2ccc3ncn(CCCC(=O)N4CCCC4)c(=O)c3c2)cc1NS(=O)(=O)c1ccc(F)cc1Cl", "pIC50": 8.13}
{"compound": "COc1ncc(-c2ccc3ncn(CC(F)(F)C(N)=O)c(=O)c3c2)cc1NS(=O)(=O)c1ccc(F)cc1Cl", "pIC50": 8.15}
{"compound": "CNC(=O)C(C)Cn1cnc2ccc(-c3cnc(OC)c(NS(=O)(=O)c4cc(Cl)ccc4Cl)c3)cc2c1=O (single isomer, unassigned)", "pIC50": 8.20}
{"compound": "COCCNC(=O)C(C)Cn1cnc2ccc(-c3cnc(OC)c(NS(=O)(=O)c4ccc(F)cc4Cl)c3)cc2c1=O (single isomer, unassigned) [WX064]", "pIC50": 8.04}

INPUT: // fetch pIC50 given entry CNC(=O)[C@@H](C)Cn1cnc2ccc(-c3cnc(OC)c(NS(=O)(=O)c4ccc(F)cc4C(F)(F)F)c3)cc2c1=O
OUTPUT: 7.79

Values from patent US20200317660A1
